Every entry's value here was drawn from ChEMBL document CHEMBL1212758.

Entries annotated with measured pEC50
System: Macacine alphaherpesvirus 1
Assay: Antiviral activity against Macacine herpesvirus 1 isolate MR7 infected in african green monkey Vero cells by plaque reduction assay
Format: functional, organism-based
Conditions: Macacine alphaherpesvirus 1, isolate MR7, Vero
pEC50: −log10 of the molar value.
Observation type: pEC50

substance_smiles=Nc1nc2c(ncn2COCCO)c(=O)[nH]1 observed_value=4.71
substance_smiles=Nc1ncnc2c1ncn2[C@@H]1O[C@H](CO)[C@@H](O)[C@@H]1O observed_value=4.58

###

This section presents molecules with their documented Ratio EC50 values.
System: Macacine alphaherpesvirus 1
Experiment: Ratio of acyclovir EC50 to compound EC50 for Macacine herpesvirus 1 isolate A5 infected in african green monkey Vero cells
Type: functional
Observation type: Ratio EC50

molecule=Cc1cn([C@@H]2O[C@H](CO)[C@@H](O)[C@@H]2F)c(=O)nc1N observation_type="Ratio EC50" observed_value=10
molecule="Cc1cn([C@H]2O[C@@H](CO)[C@H](O)[C@H]2F)c(=O)[nH]c1=O [CLEVUDINE]" observation_type="Ratio EC50" observed_value=100
molecule=Nc1nc(=O)n([C@@H]2O[C@H](CO)[C@@H](O)[C@@H]2F)cc1Br observation_type="Ratio EC50" observed_value=10
molecule="CCc1cn([C@H]2O[C@@H](CO)[C@H](O)[C@H]2F)c(=O)[nH]c1=O (single isomer, unassigned)" observation_type="Ratio EC50" observed_value=100
